Tested on: MDA-MB-231
Test: Growth inhibition of human MDA-MB-231 cells by sulforhodamine B assay
Type: functional
Details: read-out: pTGI (converted)
TGI strictly less than 20 µM = 1. Otherwise -1.

Criterion: TGI strictly below 20 µM. Is it met by C/C=C(/C)C(=O)O[C@@H]1CC(C)(C)C[C@H]2C3=CC[C@@H]4[C@@]5(C)CC[C@H](O)C(C)(C)[C@@H]5CC[C@@]4(C)[C@]3(C)CC[C@@]12C(=O)O ?
1

Criterion: TGI strictly below 20 µM. Is it met by CC1(C)C[C@@H](O)[C@]2(C(=O)O)CC[C@]3(C)C(=CC[C@@H]4[C@@]5(C)C/C(=C\C=C\c6ccccc6)C(=O)C(C)(C)[C@@H]5CC[C@]43C)[C@@H]2C1 ?
1

Criterion: TGI strictly below 20 µM. Is it met by C/C=C(/C)C(=O)O[C@@H]1CC(C)(C)C[C@H]2C3=CC[C@@H]4[C@@]5(C)CCC(=O)C(C)(C)[C@@H]5CC[C@@]4(C)[C@]3(C)CC[C@@]12C(=O)O ?
-1

Criterion: TGI strictly below 20 µM. Is it met by CC(C)=CC(=O)O[C@@H]1CC(C)(C)C[C@H]2C3=CC[C@@H]4[C@@]5(C)CCC(=O)C(C)(C)[C@@H]5CC[C@@]4(C)[C@]3(C)CC[C@@]12C(=O)O ?
-1
